Reference source: the EternaBench riboswitch data

# Test system: MS2 coat protein
# procedure-text: apparent Kd, MS2 coat protein; higher = weaker binding; RNA-MaP array; tryptophan 2.4 mM where present
# experimental-setup: ligand present: tryptophan; designed as: ON switch for tryptophan
Documented apparent Kd across a set of sequences
Output spec: scalar in nM, unitless text.

Known apparent Kd results, listed for orientation:
INSERT INTO results (record_sequence, observed_measurement) VALUES
  ('ACGUUUUAGUCGGCCGCCACUGAUCUCAUGUUCAACAUGAGGAUCACCCAUGUACCUUUUUUUAUCAGGACCGGGACGUAAUAGA', 62.3),
  ('AUGCAGAACACGGCCGCCACUCCAUGUAUACAUGAGGAUCACCCAUGUAAUUUGUAUUUUUUAUAGAGGACCGGGUGAAAUGCAA', 18.2),
  ('ACAUUAGCCACGGCCGCCACUGCUUUAUGAUUAUAAGGAUUAAUGAACAUGAGGAUCACCCAUGUCAGGACCGGGUGCCUACCAU', 29.7),
  ('CACGAUUUGUCGGCCGCCACUAAGGUAACUCUUCUCACAUGAGGAUCACCCAUGUGCCCGAAGCUUAGGACCGGGAUAAUGGGUG', 40.8);

Task: Provide value of apparent Kd for this record tested with MS2 coat protein: AAAACAUGAGGAUCACCCAUGUACAUGGGUCGAGGACCGGUACGGCCGCCACUCGCCGCCCGCCCGCCCGCCACCUCUCCCGCCC
Output: 66.2

Task: Short answer please: apparent Kd, MS2 coat protein, entry AUAUAUACAUGAGGAUCACCCAUGUUAUUUCGAGGACCGGUACGGCCGCCACUCGAUAGAGUAGAAGUAACAUUUGUUAGAUGUA
Output: 13.9

Task: Item: ACAUGAGGAUCACCCAUGUCAUGAGGUUCACGAGGACCGGUACGGCCGCCACUCGACAUGAGGGUCACCCGUGAACGGAACACCC Test system: MS2 coat protein Read-out: apparent Kd Value: ?
Output: 20

====

# Test system: MS2 coat protein
# procedure-text: apparent Kd, MS2 coat protein; higher = weaker binding; RNA-MaP array; tryptophan 2.4 mM where present
# experimental-setup: ligand present: tryptophan; designed as: ON switch for tryptophan
observed-property: apparent Kd (nM)
# unit: nM | format: bare number

Example results:
INSERT INTO assay_data (record_sequence, assay_system, observed_measurement) VALUES
  ('AAUCAUGAAAACAUGACAUGAGGAUCACUCCGAGGACCGGUACGGCCGCCACUCGCGAGGAGGCACAUGAGGAUCACCCAUGUUA', 'MS2 coat protein', 82.7),
  ('AGCCACUCGAGUGAUCCUCACGAGUGGCAACGAGGACCGGUACGGCCGCCACUCGAAUAAACAUGAGGAUCACCCAUGUAAUAAU', 'MS2 coat protein', 49.1),
  ('CGAGUGAGUUCAAUCGAAUAACGGUUUUCGCGAGGACCGGUACGGCCGCCACUCGUGUGAUAUCACACAUGAGGAUCACCCAUGU', 'MS2 coat protein', 31.6);

Now for a further sequence.
Task: I'd like to know its apparent Kd. The sequence in question is AUUAAGGAUAUAUAGAAGGCGGAGAAGAGACGAGGACCGGUACGGCCGCCACUCGUGUUAGUUAACAUGAGGAUCACCCAUGUAA
Output: 18.7
